# protocol.details: Thermodynamic solubility
# Assay type: physicochemical
# condition.description: pH 7.4, aqueous buffer, thermodynamic from solid
recorded.endpoint: solubility thermodynamic

Form: molecule = "CC(C)=CCc1c2c(c3occ(-c4ccc(O)c(O)c4)c(=O)c3c1O)C=CC(C)(C)O2" ; solubility thermodynamic = < 0.42 µg/mL

###

# protocol.details: Thermodynamic solubility
# Type: physicochemical
# condition.description: water, thermodynamic from solid
recorded.endpoint: solubility thermodynamic

The recorded solubility thermodynamic for entry "CC(C)=CCc1c2c(c3occ(-c4ccc(O)c(O)c4)c(=O)c3c1O)C=CC(C)(C)O2" equals < 0.42 µg/mL

Recorded values, source patent US20250154180A1.
